Tested on: 188146-221-R-J1-PDC complex spheroid viability;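 further: spheroids exposed to compounds for seven days; 100% = DMSO vehicle control viability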
Assay: Anticancer human tumor 188146-221-R-J1-PDC patient-derived colon adenocarcinoma cell line growth inhibition [POLQ]
Conditions: second compound 0.0316 µM; first compound 0.316 µM; active compounds read low
We begin with a simple list: items and their reported viability, T/C.

INSERT INTO assay_data (compound, result) VALUES
  ('C=CCn1c(=O)c2cnc(Nc3ccc(N4CCN(C)CC4)cc3)nc2n1-c1cccc(C(C)(C)O)n1 + COC1C(OC(N)=O)C(O)C(Oc2ccc3c(O)c(NC(=O)c4ccc(O)c(CC=C(C)C)c4)c(=O)oc3c2C)OC1(C)C', '98%');

Q: What value of viability, T/C has been reported for the following compound? O=C(c1cc(Cc2n[nH]c(=O)c3ccccc23)ccc1F)N1CCN(C(=O)C2CC2)CC1 + Cc1cccc(N(C)C(=O)C2C(O)CCN2c2nc(C)cc(C(F)(F)F)c2C#N)c1
Ans: 108%

Q: What value of viability, T/C has been reported for the following compound? CC1COCCN1c1cc(C2(O)CC3CCC(C2)O3)c2cnn(-c3ccn[nH]3)c2n1 (stereo unspecified) + Cc1cccc(N(C)C(=O)C2C(O)CCN2c2nc(C)cc(C(F)(F)F)c2C#N)c1
Ans: 61.5%

Q: What value of viability, T/C has been reported for the following compound? CC(C)n1c(=O)n(C)c2cnc3cc(F)c(-c4ccc(OCCCN5CCCCC5)nc4)cc3c21 + Nc1ccc(C#CCN(C(=O)Cc2ncc(C(F)(F)F)cc2C(F)(F)F)c2ccc(F)cc2)nn1
Ans: 95.4%

Q: What value of viability, T/C has been reported for the following compound? Nc1ccn(C2OC(CO)C(O)C2(F)F)c(=O)n1 (stereo unspecified) + COC1C(OC(N)=O)C(O)C(Oc2ccc3c(O)c(NC(=O)c4ccc(O)c(CC=C(C)C)c4)c(=O)oc3c2C)OC1(C)C
Ans: 17.4%

Q: What value of viability, T/C has been reported for the following compound? O=c1[nH]cc(F)c(=O)[nH]1 + Nc1ccc(C#CCN(C(=O)Cc2ncc(C(F)(F)F)cc2C(F)(F)F)c2ccc(F)cc2)nn1
Ans: 83.8%

Q: What value of viability, T/C has been reported for the following compound? CC1COCCN1c1cc(C2(O)CC3CCC(C2)O3)c2cnn(-c3ccn[nH]3)c2n1 (stereo unspecified) + Nc1ccc(C#CCN(C(=O)Cc2ncc(C(F)(F)F)cc2C(F)(F)F)c2ccc(F)cc2)nn1
Ans: 49.4%

Q: What value of viability, T/C has been reported for the following compound? COc1ccc([C@@H](O)c2cc(-c3ncnc4cc(N5CCOCC5)ccc34)c(F)cc2Cl)nn1 + Cc1cccc(N(C)C(=O)C2C(O)CCN2c2nc(C)cc(C(F)(F)F)c2C#N)c1
Ans: 87.9%

Q: What value of viability, T/C has been reported for the following compound? CCc1cc2c(N3CCc4c(cc(Cn5ccnc5)cc4-c4cn(C)nc4C(F)(F)F)C3=O)cc(C)nc2c(OC)n1 + Nc1ccc(C#CCN(C(=O)Cc2ncc(C(F)(F)F)cc2C(F)(F)F)c2ccc(F)cc2)nn1
Ans: 74.4%

Q: What value of viability, T/C has been reported for the following compound? CCc1c2c(nc3ccc(O)cc13)-c1cc3c(c(=O)n1C2)COC(=O)[C@]3(O)CC + Cc1cccc(N(C)C(=O)C2C(O)CCN2c2nc(C)cc(C(F)(F)F)c2C#N)c1
Ans: 11.2%

Q: What value of viability, T/C has been reported for the following compound? CC1COCCN1c1cc(C2(O)CC3CCC(C2)O3)c2cnn(-c3ccn[nH]3)c2n1 (stereo unspecified) + COC1C(OC(N)=O)C(O)C(Oc2ccc3c(O)c(NC(=O)c4ccc(O)c(CC=C(C)C)c4)c(=O)oc3c2C)OC1(C)C
Ans: 53.1%

Reference source for all entries: PubChem BioAssay AID1963851
